EXPERIMENTAL_SYSTEM: Neurogenic locus notch homolog protein 3 (Homo sapiens) (UniProt Q9UM47)
Sequence (Q9UM47 whole entry, looked up): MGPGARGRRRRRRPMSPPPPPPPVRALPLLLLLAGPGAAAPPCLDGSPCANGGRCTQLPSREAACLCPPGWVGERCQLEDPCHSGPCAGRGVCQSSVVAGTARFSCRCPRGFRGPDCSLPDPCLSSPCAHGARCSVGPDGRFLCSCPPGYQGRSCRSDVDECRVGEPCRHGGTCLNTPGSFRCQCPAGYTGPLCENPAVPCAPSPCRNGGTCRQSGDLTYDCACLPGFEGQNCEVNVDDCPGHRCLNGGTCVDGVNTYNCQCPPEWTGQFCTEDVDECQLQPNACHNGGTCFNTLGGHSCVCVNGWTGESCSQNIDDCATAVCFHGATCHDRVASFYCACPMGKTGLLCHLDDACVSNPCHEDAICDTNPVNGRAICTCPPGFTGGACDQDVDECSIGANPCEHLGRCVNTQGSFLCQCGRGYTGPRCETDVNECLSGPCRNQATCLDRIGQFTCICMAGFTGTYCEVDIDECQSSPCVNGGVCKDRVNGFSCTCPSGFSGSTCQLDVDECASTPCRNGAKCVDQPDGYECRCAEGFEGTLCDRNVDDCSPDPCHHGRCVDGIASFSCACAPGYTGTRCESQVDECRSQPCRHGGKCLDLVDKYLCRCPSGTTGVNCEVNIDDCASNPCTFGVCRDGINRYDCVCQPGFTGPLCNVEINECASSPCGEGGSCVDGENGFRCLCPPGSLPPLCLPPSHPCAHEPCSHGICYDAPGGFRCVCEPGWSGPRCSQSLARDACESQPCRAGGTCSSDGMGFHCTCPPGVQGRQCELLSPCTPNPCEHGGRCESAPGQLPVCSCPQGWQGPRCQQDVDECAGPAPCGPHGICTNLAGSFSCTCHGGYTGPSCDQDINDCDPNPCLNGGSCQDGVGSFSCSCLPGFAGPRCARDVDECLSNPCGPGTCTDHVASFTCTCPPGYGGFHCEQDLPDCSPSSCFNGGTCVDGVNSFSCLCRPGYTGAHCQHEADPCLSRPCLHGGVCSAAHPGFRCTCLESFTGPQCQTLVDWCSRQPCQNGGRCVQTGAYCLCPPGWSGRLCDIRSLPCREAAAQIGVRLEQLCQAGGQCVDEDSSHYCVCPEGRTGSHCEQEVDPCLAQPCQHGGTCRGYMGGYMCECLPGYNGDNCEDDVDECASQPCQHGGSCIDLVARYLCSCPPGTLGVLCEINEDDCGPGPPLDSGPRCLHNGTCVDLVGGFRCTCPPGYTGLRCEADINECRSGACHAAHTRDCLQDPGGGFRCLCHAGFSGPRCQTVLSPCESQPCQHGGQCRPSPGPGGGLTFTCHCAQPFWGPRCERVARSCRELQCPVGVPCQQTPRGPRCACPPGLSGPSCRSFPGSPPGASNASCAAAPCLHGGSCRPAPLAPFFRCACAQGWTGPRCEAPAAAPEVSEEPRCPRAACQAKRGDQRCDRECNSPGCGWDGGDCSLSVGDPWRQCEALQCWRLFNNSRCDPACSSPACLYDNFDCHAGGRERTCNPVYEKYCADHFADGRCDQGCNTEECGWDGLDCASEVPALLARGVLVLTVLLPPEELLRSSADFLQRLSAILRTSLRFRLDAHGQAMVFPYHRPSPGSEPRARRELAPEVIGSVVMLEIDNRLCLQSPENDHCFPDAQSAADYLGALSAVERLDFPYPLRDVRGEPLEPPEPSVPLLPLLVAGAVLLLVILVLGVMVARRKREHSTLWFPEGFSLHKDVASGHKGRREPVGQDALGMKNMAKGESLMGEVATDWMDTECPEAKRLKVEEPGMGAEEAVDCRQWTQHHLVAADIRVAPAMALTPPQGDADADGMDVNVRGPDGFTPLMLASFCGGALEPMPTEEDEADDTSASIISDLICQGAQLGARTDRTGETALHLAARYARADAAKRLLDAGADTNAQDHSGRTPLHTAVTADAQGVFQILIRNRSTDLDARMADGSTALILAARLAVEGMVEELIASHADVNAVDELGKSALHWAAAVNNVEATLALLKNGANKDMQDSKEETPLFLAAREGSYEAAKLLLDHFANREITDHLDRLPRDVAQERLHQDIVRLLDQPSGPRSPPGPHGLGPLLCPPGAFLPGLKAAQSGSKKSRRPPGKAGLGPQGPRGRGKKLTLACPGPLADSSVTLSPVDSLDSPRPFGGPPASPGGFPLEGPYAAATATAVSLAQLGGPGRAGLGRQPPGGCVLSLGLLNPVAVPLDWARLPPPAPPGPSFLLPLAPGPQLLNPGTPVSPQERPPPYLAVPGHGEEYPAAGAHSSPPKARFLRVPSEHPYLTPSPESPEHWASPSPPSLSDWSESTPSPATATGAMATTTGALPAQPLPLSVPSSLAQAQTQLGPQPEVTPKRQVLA
RUN_DESCRIPTION: small molecules binding NOTCH3 protein – biochemical, 635/667 nm fluorescence, primary screen (AID 1096)
EXPERIMENTAL_CONTEXT: small-molecule microarray, 635 nm fluorescence, higher = more signal
Threshold check on composite z-score: at or above 0.6 gives yes (1), strictly below gives no (0).

{"columns": ["MOLECULE", "EXPERIMENTAL_SYSTEM", "LABEL_CLASS"],
 "data": [
  ["Cc1ccc(S[C@]2(C(=O)NCC(F)(F)F)CC(=O)N(Cc3cc(C(F)(F)F)cc(C(F)(F)F)c3)[C@@H]2c2ccc(CO)cc2)cc1", "Neurogenic locus notch homolog protein 3 (Homo sapiens) (UniProt Q9UM47)", "no (0)"],
  ["[N-]=[N+]=Nc1ccccc1[C@H]1OC(c2ccc(OCCCO)cc2)=N[C@@]1(Cc1ccccc1)C(=O)NCCN1CCOCC1", "Neurogenic locus notch homolog protein 3 (Homo sapiens) (UniProt Q9UM47)", "yes (1)"],
  ["CC1=C2[C@@H](CCc3ccccc3)OB(O)C[C@@H]2[C@@H]2C(=O)N(C)C(=O)[C@@H]2C1", "Neurogenic locus notch homolog protein 3 (Homo sapiens) (UniProt Q9UM47)", "no (0)"],
  ["CCOC(=O)C[C@H]1[C@H](OC(=O)c2ccccc2-c2ccccc2)[C@@H](NC(=O)c2ccc3ccccc3c2)c2cc(OCCCO)ccc2N1C(=O)c1ccccc1", "Neurogenic locus notch homolog protein 3 (Homo sapiens) (UniProt Q9UM47)", "no (0)"],
  ["[N-]=[N+]=Nc1ccccc1C[C@@]1(C(=O)NCCN2CCOCC2)N=C(c2ccc(OCCCO)cc2)O[C@@H]1c1ccccc1N=[N+]=[N-]", "Neurogenic locus notch homolog protein 3 (Homo sapiens) (UniProt Q9UM47)", "yes (1)"],
  ["CCOC(=O)C[C@H]1[C@H](OC(=O)c2ccc(C(=O)c3ccccc3)cc2)[C@@H](NC(=O)C2CCCCC2)c2cc(OCCCO)ccc2N1C(=O)c1ccc2ccccc2n1", "Neurogenic locus notch homolog protein 3 (Homo sapiens) (UniProt Q9UM47)", "yes (1)"],
  ["CCOC(=O)C[C@H]1[C@H](OC(=O)Cc2ccc3c(c2)OCO3)[C@@H](NC(=O)c2ccc3ccccc3n2)c2cc(OCCCO)ccc2N1C(=O)c1ccccc1", "Neurogenic locus notch homolog protein 3 (Homo sapiens) (UniProt Q9UM47)", "no (0)"],
  ["C=CC[C@@]1(C(=O)NCCCOC)N=C(c2ccc(OCCCO)cc2)O[C@@H]1c1ccccc1", "Neurogenic locus notch homolog protein 3 (Homo sapiens) (UniProt Q9UM47)", "no (0)"],
  ["O=C1[C@H]2C=C(I)[C@H](C[C@@H]2OCCOCCO)[C@@]12CO2", "Neurogenic locus notch homolog protein 3 (Homo sapiens) (UniProt Q9UM47)", "yes (1)"],
  ["COc1ccc([Si](C)(C)[C@@H]2[C@@H](CC(=O)N3CCC[C@H]3CO)O[C@]3(C(=O)N(Cc4cccc(N5C(=O)COc6ccccc65)c4)c4ccccc43)[C@H]2C)cc1", "Neurogenic locus notch homolog protein 3 (Homo sapiens) (UniProt Q9UM47)", "yes (1)"],
  ["CC(=O)N1CC2(CC2)CC1c1ccccc1 (stereo not given)", "Neurogenic locus notch homolog protein 3 (Homo sapiens) (UniProt Q9UM47)", "no (0)"],
  ["[N-]=[N+]=Nc1ccccc1C[C@]1(C(=O)NCCN2CCOCC2)COC(c2ccc(OCCCO)cc2)=N1", "Neurogenic locus notch homolog protein 3 (Homo sapiens) (UniProt Q9UM47)", "no (0)"],
  ["O=C(C1N=C(c2ccc(OCCCO)cc2)N(c2ccccc2)O1)N1CCCCC1 (stereo not given)", "Neurogenic locus notch homolog protein 3 (Homo sapiens) (UniProt Q9UM47)", "no (0)"],
  ["COC(=O)C(CC#Cc1ccc2c(c1)[C@]1(C(=O)N2)[C@H](c2ccc(O)cc2)N2[C@H](c3ccccc3)[C@H](c3ccccc3)OC(=O)[C@H]2[C@@H]1C(=O)NC[C@H](O)c1ccccc1)C(=O)OC", "Neurogenic locus notch homolog protein 3 (Homo sapiens) (UniProt Q9UM47)", "yes (1)"],
  ["CCCCCCCCCC(O)C1C=CC2C(=O)N(c3ccccc3)C(=O)C2N1Nc1cc(OC)c(OC)c(OC)c1 (stereo not given)", "Neurogenic locus notch homolog protein 3 (Homo sapiens) (UniProt Q9UM47)", "yes (1)"]
]}
